subject.of.test: T1, EsCas13d, nuclease-dead (Eubacterium siraeum, UniProt B0MS50, R295A;H300A;R849A;H854A)
T1 sequence: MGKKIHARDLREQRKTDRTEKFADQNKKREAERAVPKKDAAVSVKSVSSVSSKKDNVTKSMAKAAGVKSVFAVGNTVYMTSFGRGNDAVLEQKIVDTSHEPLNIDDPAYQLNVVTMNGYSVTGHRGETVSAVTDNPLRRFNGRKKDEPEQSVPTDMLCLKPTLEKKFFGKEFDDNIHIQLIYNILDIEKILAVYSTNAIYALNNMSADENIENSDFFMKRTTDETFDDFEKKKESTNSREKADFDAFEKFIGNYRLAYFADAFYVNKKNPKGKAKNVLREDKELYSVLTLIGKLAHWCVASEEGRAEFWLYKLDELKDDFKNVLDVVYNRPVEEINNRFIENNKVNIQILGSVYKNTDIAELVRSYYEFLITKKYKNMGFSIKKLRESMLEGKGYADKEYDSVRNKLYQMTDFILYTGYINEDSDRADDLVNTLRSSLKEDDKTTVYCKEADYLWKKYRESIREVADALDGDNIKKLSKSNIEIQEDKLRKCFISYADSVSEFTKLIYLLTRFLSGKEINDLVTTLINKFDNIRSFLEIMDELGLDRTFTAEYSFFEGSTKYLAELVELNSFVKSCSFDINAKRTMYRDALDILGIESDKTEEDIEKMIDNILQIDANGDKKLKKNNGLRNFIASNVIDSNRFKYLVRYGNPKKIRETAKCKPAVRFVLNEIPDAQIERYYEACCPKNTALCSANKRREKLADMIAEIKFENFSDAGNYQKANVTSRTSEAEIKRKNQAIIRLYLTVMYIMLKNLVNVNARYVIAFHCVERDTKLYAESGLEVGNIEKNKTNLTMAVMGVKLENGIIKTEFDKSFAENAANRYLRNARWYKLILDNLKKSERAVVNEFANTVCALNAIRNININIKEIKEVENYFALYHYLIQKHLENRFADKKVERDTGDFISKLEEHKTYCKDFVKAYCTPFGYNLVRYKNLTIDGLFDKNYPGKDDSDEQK
test.protocol: crRNA (strand 1, pre-loaded); Mg2+; 40 mM Tris-HCl pH 7.5, 150 mM NaCl, 6 mM MgCl2, 1 mM DTT, 0.1% Tween-20, 0.2 mg/ml BSA; 25 C; 10 min per concentration, then washed
protocol.conditions: tags: His6-TwinStrep-SUMO cleaved; N-terminal SNAP kept (SNAP-Surface 488); label: 3' end held by stalled T7 RNA polymerase
reported.endpoint: Kd (nM)
Write the value in nM as a bare number.

Query string: What value of measured Kd is listed for target 2 MT 5'PFS CUU 3'PFS UCC (mixed) RNA 1: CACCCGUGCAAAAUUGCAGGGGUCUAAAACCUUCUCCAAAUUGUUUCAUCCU RNA 2: GGGAAUGGAUCCACAUCUACGAAUUCCUUAGGAUGAAACAAUUUGGAGAAGUCCAGAUCGGAAGAGCACACGU ?
Result string: 8.2

Query string: Next record, please: target 1 MT 5'PFS UCA 3'PFS AAC (mixed) RNA 1: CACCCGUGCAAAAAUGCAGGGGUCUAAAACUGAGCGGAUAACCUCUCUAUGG RNA 2: GGGAAUGGAUCCACAUCUACGAAUUCUCACCAUAGAGAGGUUAUCCGCUCAAACAGAUCGGAAGAGCACACGU
Result string: 18.6

Query string: For target 3 insA 3' of 21,insU 3' of 6 (mixed) RNA 1: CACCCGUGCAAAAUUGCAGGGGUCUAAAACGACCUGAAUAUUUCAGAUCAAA RNA 2: GGGAAUGGAUCCACAUCUACGAAUUCGUUUUAUGAUCUGAAAUAUUCUAGGUCUGCAGAUCGGAAGAGCACACGU then?
Result string: 84

Query string: Subsequent entry: target 1 U10A,A14G (mixed) RNA 1: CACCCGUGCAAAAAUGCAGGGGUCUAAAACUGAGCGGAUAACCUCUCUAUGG RNA 2: GGGAAUGGAUCCACAUCUACGAAUUCGUACCAUAGAGGGGUAAUCCGCUCACCGAGAUCGGAAGAGCACACGU
Result string: 12.3
